binders and their reported IC50 of Dil-Oxidized LDL uptake inhibition
Assayed target: T1, full length human MSR1 with a C-terminal Myc tag, on HEK293.Myc.hMSR1 cells (human, UniProt P21757 1-451)
T1 sequence (looked up): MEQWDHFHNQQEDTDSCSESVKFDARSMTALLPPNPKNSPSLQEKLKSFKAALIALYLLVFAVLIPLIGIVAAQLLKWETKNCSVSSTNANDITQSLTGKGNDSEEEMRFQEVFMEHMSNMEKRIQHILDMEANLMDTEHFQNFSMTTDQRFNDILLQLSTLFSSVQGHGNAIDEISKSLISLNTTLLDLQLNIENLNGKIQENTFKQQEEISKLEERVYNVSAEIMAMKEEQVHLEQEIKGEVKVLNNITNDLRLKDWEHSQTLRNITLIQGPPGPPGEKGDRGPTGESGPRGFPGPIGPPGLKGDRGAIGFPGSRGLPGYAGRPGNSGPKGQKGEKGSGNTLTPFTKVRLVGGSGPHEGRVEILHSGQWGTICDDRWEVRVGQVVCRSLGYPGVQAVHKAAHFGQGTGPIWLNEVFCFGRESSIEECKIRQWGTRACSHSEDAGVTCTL
Measurement description: cell-based or functional assay
Recorded endpoint: IC50 of Dil-Oxidized LDL uptake inhibition (nM)

| Binder | Unit text | Experimental value |
| --- | --- | --- |
| H2bM21234N (antibody, V domains shown) VH: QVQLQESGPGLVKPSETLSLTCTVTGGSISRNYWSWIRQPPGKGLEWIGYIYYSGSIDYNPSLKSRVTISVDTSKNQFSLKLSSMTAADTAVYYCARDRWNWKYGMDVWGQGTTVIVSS VL: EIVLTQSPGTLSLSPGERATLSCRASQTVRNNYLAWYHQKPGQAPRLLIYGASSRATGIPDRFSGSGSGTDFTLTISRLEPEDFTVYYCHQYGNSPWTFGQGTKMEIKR | nM | 4.5 |
| H1M21231N (antibody, V domains shown) VH: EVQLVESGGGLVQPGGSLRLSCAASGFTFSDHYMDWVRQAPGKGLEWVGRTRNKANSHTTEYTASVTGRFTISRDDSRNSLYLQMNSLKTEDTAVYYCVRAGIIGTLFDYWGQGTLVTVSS VL: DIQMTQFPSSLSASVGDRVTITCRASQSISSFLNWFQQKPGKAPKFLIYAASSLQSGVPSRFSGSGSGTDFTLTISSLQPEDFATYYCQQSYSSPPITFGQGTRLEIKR | nM | 3.7 |
| H1H27734P-N297Q (antibody, human IgG1, V domains shown, human IgG1 Fc with N297Q) VH: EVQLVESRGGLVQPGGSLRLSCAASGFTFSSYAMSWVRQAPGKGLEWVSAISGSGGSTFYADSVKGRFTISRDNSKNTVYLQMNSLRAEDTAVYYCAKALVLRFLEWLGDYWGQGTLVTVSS VL: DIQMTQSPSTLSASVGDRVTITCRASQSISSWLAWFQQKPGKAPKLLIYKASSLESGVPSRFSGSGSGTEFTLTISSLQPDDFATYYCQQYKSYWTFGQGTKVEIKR | nM | 5.5 |
